Values from PubChem BioAssay

assay: HUVEC growth inhibition – cell-based, human, primary screen (AID 575); settings: HUVEC proliferation, CellTiter-Glo luminescence, 72 h; at 10 µM; active compounds read low;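 further: 100% = median of untreated cell wells with 0.1% DMSO on each plate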
viability strictly less than 90% = y. Otherwise n.

1) Cc1ccc(-n2ncc3c(=O)n(CC(=O)N4CCCc5ccccc54)cnc32)cc1C | y
2) CCOc1ccccc1CN(Cc1ccco1)S(=O)(=O)c1ccc(-n2cnnn2)c(OC)c1 | y
3) CCOC(=O)c1c(C)oc2ccc(O)c(CN(C)C)c12 | y
4) CCOc1ccc(NC(=O)CN2CCN(CC(=O)c3ccc(OCC)cc3)CC2)cc1 | y
5) Cn1cc(C(=O)NC2CCCCCCC2)c(=O)c2cc(S(=O)(=O)N3CCCC3)ccc21 | y
6) CC(C)(C)c1cc(NC(=O)c2cc(F)c(F)c(F)c2F)no1 | y
7) COc1ccccc1C1(CC(=O)N2CCOCC2)CCOC(C(C)C)C1 (stereo not drawn) | y
8) O=C(C1=C(O)C(=O)N(Cc2ccccc2)C1c1ccncc1)c1ccco1 (stereo not drawn) | n
9) Cc1oc2c(c1C(=O)NCc1ccccc1)CCCC2 | n
10) CCOC(=O)C1=C(C)NC(C)=C(C(=O)OC)C1c1cccc(Cl)c1Cl (stereo not drawn) | y
11) Clc1ccccc1OCCCCn1ccnc1 | n
12) Cc1c(O)c(CN2CCCC(C)C2)cc2c3c(c(=O)oc12)CCC3 (stereo not drawn) | n
13) CC(Cc1ccc(O)c(O)c1)C(C)Cc1ccc(O)c(O)c1 (stereo not drawn) | y
14) O=C(CN(Cc1ccco1)C(=O)c1cc(=O)[nH]c2ccccc12)Nc1ccccc1Br | n
15) CC(C)(C#N)Nn1cnnc1 | n
16) CC(C)(C)c1ccc(C(=O)N2CCC(C(=O)NCc3ccncc3)CC2)cc1 | n
17) O=C(CSc1nc2ccccc2o1)NC(=O)NCc1ccco1 | n
18) COc1ccc(C)cc1-n1c(N)c(C#N)c(C#N)c1-c1ccc(OC)c(OC)c1OC | y
19) COc1ccc(C2C(C(C)=O)=C(O)C(=O)N2C)c(OC)c1 (stereo not drawn) | n
20) O=C(O)C1CCCN1c1ncnc2c1oc1ccccc12 (stereo not drawn) | y

====

assay: growth inhibitors of H69AR lung tumor, primary screen, human, duplicate replicates (AID 580); conditions: H69AR lung tumor cells viability, ATP luminescence, 72 h; at 10 µM; active compounds read low;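 further: 100% = mean luminescence of untreated wells and 0% = no signal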
Mark 1.0 only for viability values smaller than 90%; exact matches and larger values are 0.0.

1) Cc1ccnc(NS(=O)(=O)c2ccc(N=CC3=C(O)CC(C)(C)CC3=O)cc2)n1 | 0.0
2) COc1ccc(OC)c(Nc2nc(-c3cccs3)cs2)c1 | 1.0
3) O=C(c1ccco1)N1CCN(CCCCN2C(=O)c3ccccc3C2=O)CC1 | 1.0
4) O=C(c1cnn2c(C(F)F)cc(-c3ccccc3)nc12)N1CCN2CCCC2C1 (stereo unspecified) | 1.0
5) CC(=O)c1c(O)cc(C)n(Nc2nc(C)cc(C)n2)c1=O | 1.0
6) Cc1cccc(NC(=O)c2ccc(S(=O)(=O)N(C)C)cc2)n1 | 0.0
7) COc1ccc(C/C(O)=C(\C#N)c2nc3ccccc3s2)cc1 | 1.0
8) c1ccc(CNC2=NCCC2)nc1 | 0.0
9) Cc1nnc(SCCCn2c(N3CCCCC3)nc3c2c(=O)[nH]c(=O)n3C)s1 | 0.0
10) O=C(CSc1nc2ccccc2[nH]1)N1CCCCC1 | 0.0
11) N[C@@H](C(=O)N[C@@H]1C(=O)N2C(C(=O)O)=C(Cl)CS[C@H]12)c1ccccc1 | 0.0
